# system_under_test: T1, USP38, Q8NB14
# T1 chain: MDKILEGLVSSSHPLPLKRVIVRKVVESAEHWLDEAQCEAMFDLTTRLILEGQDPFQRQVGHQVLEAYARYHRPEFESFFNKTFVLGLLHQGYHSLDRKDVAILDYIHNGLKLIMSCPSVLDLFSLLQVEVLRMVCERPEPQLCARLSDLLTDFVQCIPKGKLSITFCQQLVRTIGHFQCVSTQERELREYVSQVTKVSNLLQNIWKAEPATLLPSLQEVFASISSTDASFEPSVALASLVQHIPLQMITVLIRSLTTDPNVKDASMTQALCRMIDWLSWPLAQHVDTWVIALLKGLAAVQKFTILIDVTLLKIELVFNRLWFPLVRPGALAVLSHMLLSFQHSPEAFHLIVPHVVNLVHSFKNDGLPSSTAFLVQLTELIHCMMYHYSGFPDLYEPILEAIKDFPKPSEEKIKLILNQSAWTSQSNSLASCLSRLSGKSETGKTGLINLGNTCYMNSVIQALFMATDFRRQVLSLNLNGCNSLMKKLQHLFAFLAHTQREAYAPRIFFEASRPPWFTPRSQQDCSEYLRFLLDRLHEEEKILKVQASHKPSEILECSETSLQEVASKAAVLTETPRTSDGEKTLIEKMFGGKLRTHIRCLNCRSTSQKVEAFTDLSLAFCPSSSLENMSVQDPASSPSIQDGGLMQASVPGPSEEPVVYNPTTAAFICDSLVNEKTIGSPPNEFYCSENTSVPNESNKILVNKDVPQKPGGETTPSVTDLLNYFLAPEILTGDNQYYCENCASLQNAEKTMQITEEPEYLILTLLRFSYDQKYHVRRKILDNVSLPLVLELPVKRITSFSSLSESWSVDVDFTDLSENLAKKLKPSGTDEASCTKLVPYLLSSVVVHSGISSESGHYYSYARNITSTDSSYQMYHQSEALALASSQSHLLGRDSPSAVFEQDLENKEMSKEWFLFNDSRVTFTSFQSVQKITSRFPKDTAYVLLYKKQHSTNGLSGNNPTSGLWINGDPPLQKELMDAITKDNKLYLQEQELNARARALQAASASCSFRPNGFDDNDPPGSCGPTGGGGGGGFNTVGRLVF
# procedure_details: median log2 fold change of GCK-ALFA target abundance (FLAG IP / Myc IP barcode read proportion) (log2 ratio); each designed protein is fused to an ALFA-tag nanobody in HEK293 cells to bring the named protein to FLAG-tagged glucokinase (GCK); Myc marks an untargeted standard; higher = target protein stabilised (more abundant)
# conditions_used: target protein: 3xFLAG-MCP-GCK-ALFA reporter; HEK293 landing pad (RPLP)
recorded_endpoint: median log2 fold change
Write no unit; give the number alone.

usp_38_diff_out_17_125_213 (protein) AEAALIAEIEALLAEATAKVKEAEALLKAGAPTEEVLKALDAARDALGALAVALERLRRESADRAQAAAVIKAATAEADKLIDRLTELETEAFLRQAEEA: 0.41
usp_38_diff_out_2_113_470 (protein) DPEERKKEAELYKKIILEGAEQLLRLAKKGRLTPDRTRVMLGGIVEAARRAYELDPSVKPVIEEVIKKLEEVEKLVKDKNPEVAAAIKEAIKELKKILKE: 0.141
usp_38_diff_out_1_162_37 (protein) RAEELLERLREHTERLRRLVEEAKRRLDTLSAEELRAMADELADAIAETDELIREARRLMVDLDPERREEARRAIEEARRAADEAVEVYEQLVLRSIELE: 0.216
usp_38_diff_out_4_126_549 (protein) DREKQAEELEKKLEEALKKAKEYLKKAKELLDKDKEETLKALDKSWEALGKASELLRELRRIAIDDPELRERYKKLLEEANKLVDEFTKAAEEIYLKLSE: -1.05
usp_38_diff_out_18_14_357 (protein) SEAELEAQREYLEAFLEAAEIVNEEAERIIEREREKRILSADRLALMLGGLRALAEEAEEKLREARELGFEELAERLEEALERLEENAERFEALLAERRA: -0.477

Input: Give its median log2 fold change value. Item: usp_38_diff_out_18_28_370 (protein) SEEERERLEERLAALKAELDALIDRATAAATAALEAHPDDAEVWALIDALFDALGAAAAALNEARRLLREGGDLEEVERLLEQAEAHLAQARALLAQLEA
Output: 0.0316

Input: Give its median log2 fold change value. Item: usp_38_diff_out_3_136_523 (protein) MLEEVRERVRRLEETAVSLKESMLKLIEELKKDPNVTPEDVEELRKVVLDAFDSLKAEVKEIQERYPEVKEEAEKALETIEKKKKEVDKAFEELIKEKKA
Output: -0.217

Input: Give its median log2 fold change value. Item: usp_38_diff_out_17_26_235 (protein) SAEEKRKKALELLKELEKETEKELEEIEKLIKEGKFEEAEKKLDELVTKTTEKTTEILELAADDPELVEEVLKSYDKISDKIAEKYKELQEAKKKARAEA
Output: 0.284

Input: Give its median log2 fold change value. Item: usp_38_diff_out_14_75_133 (protein) SEREELEKRLEELRARLAALVAAGVISGRLEVELGAVLYTAELAIEAGKLEEAKKLLDIAEAALDDPANAKAILDANEDFIVSTYKELELERIEREEEEE
Output: 0.198
